Cited source for all entries: patent US20250084091A1

Below, each entry is listed with its recorded pIC50.
EXPERIMENTAL_TARGET: SARS-CoV-2 main protease (Mpro) (Severe acute respiratory syndrome coronavirus 2)
TEST_DESCRIPTION: biochemical
TEST_CONTEXT: Table 2; read-out: Enzyme IC50
pIC50: −log10 of the molar value.

{"COMPOUND": "Cc1cncc(C(=O)N2CCN(C(c3cccnc3)c3cccc(F)c3)CC2)c1 (stereo not shown)", "pIC50": 7.02}
{"COMPOUND": "Cc1cncc(C(=O)N2CCC(=C(c3ccccc3)c3ccccn3)CC2)c1", "pIC50": 7.13}
{"COMPOUND": "COc1cncc(C(=O)N2CCN(C(c3ccccc3)c3cccnc3)CC2)c1 (stereo not shown)", "pIC50": 5.96}
{"COMPOUND": "Cc1cncc(C(=O)N2CCN(C(c3ccccc3)c3ccccc3F)CC2)c1 (stereo not shown)", "pIC50": 7.18}
{"COMPOUND": "O=C(c1cncc(Cl)c1)N1CCN(C(c2ccccc2)c2cccc(F)c2)CC1 (stereo not shown)", "pIC50": 7.06}
{"COMPOUND": "O=C(c1cncc(C(F)(F)F)c1)N1CCN(C(c2ccccc2)c2ccccc2)CC1", "pIC50": 6.00}
{"COMPOUND": "N#Cc1cncc(C(=O)N2CCN(C(c3ccccc3)c3ccccc3)CC2)c1", "pIC50": 5.89}
{"COMPOUND": "O=C(c1cncc(Cl)c1)N1CCC(=C(c2ccccc2)c2ccccc2)CC1", "pIC50": 6.96}
{"COMPOUND": "Cc1cncc(C(=O)N2CCC(N(c3ccccc3)c3ccccc3)CC2)c1", "pIC50": 6.09}
{"COMPOUND": "O=C1CC(C(=O)N2CCN(C(c3ccccc3)c3ccccc3)CC2)c2ccccc2N1 (stereo not shown)", "pIC50": 5.82}

----------
Below, each entry is listed with its recorded pIC50.
EXPERIMENTAL_TARGET: SARS-CoV-2 main protease (Mpro) (Severe acute respiratory syndrome coronavirus 2)
TEST_DESCRIPTION: biochemical
TEST_CONTEXT: Table 2; read-out: Enzyme IC50
pIC50: −log10 of the molar value.
MEASUREMENT_NAME: pIC50

{"COMPOUND": "NCc1cncc(C(=O)N2CCN(C(c3ccccc3)c3ccccc3)CC2)c1", "MEASUREMENT_NAME": "pIC50", "COMPARATOR": "=", "OBSERVED_MEASUREMENT": 5.80}
{"COMPOUND": "O=C(c1cncc2nc[nH]c12)N1CCN(C2c3ccccc3CS(=O)(=O)c3ccccc32)CC1 (stereo not shown)", "MEASUREMENT_NAME": "pIC50", "COMPARATOR": "=", "OBSERVED_MEASUREMENT": 7.12}
{"COMPOUND": "Cc1cc(C(=O)N2CCN(C3c4ccccc4CS(=O)(=O)c4ccccc43)CC2)cnc1N (stereo not shown)", "MEASUREMENT_NAME": "pIC50", "COMPARATOR": "=", "OBSERVED_MEASUREMENT": 4.70}
{"COMPOUND": "Cc1cncc(C(=O)N2CCN(C3c4ccccc4CCc4ccccc43)CC2)c1", "MEASUREMENT_NAME": "pIC50", "COMPARATOR": "=", "OBSERVED_MEASUREMENT": 7.05}
{"COMPOUND": "Cc1cncc(CN2CCN(C(c3ccccc3)c3ccccc3)CC2=O)c1", "MEASUREMENT_NAME": "pIC50", "COMPARATOR": "=", "OBSERVED_MEASUREMENT": 5.21}
{"COMPOUND": "Cc1cncc(C(=O)N2CCN(C3c4ccccc4C=Cc4ccccc43)CC2)c1", "MEASUREMENT_NAME": "pIC50", "COMPARATOR": "=", "OBSERVED_MEASUREMENT": 7.06}
{"COMPOUND": "O=C(c1cncc2nc[nH]c12)N1CCC(=C2c3ccccc3CS(=O)(=O)c3ccccc32)CC1", "MEASUREMENT_NAME": "pIC50", "COMPARATOR": "=", "OBSERVED_MEASUREMENT": 7.04}
{"COMPOUND": "CC(C)(C)OC(=O)NCc1cncc(C(=O)N2CCN(C(c3ccccc3)c3ccccc3)CC2)c1", "MEASUREMENT_NAME": "pIC50", "COMPARATOR": "=", "OBSERVED_MEASUREMENT": 6.03}
{"COMPOUND": "Cc1cncc(C(=O)N2CCN(C(c3ccccc3)c3cc(F)cc(F)c3)CC2)c1 (stereo not shown)", "MEASUREMENT_NAME": "pIC50", "COMPARATOR": "=", "OBSERVED_MEASUREMENT": 7.21}
{"COMPOUND": "NC(=O)c1cncc(C(=O)N2CCN(C3c4ccccc4CCc4ccccc43)CC2)c1", "MEASUREMENT_NAME": "pIC50", "COMPARATOR": "=", "OBSERVED_MEASUREMENT": 5.77}
{"COMPOUND": "O=C(c1cncc(Br)c1)N1CCN(C(c2ccccc2)c2ccsc2)CC1 (stereo not shown)", "MEASUREMENT_NAME": "pIC50", "COMPARATOR": "=", "OBSERVED_MEASUREMENT": 6.60}
{"COMPOUND": "COc1cncc(C(=O)N2CCN(C(c3ccccc3)c3ccccc3)CC2)c1", "MEASUREMENT_NAME": "pIC50", "COMPARATOR": "=", "OBSERVED_MEASUREMENT": 6.32}
{"COMPOUND": "Cc1c(Br)cncc1C(=O)N1CCN(C2c3ccccc3CCc3ccccc32)CC1", "MEASUREMENT_NAME": "pIC50", "COMPARATOR": "=", "OBSERVED_MEASUREMENT": 6.57}
{"COMPOUND": "O=C(c1cncc2[nH]ccc12)N1CCN(C2c3ccccc3CS(=O)(=O)c3ccccc32)CC1 (stereo not shown)", "MEASUREMENT_NAME": "pIC50", "COMPARATOR": "=", "OBSERVED_MEASUREMENT": 7.37}
{"COMPOUND": "Cc1cncc(C(=O)N2CCN(C(c3ccccc3)c3ccccc3)CC2=O)c1", "MEASUREMENT_NAME": "pIC50", "COMPARATOR": "=", "OBSERVED_MEASUREMENT": 7.05}
{"COMPOUND": "O=C1CC(C(=O)N2CCN(C3c4ccccc4CCc4ccccc43)CC2)c2ccccc2N1 (stereo not shown)", "MEASUREMENT_NAME": "pIC50", "COMPARATOR": "=", "OBSERVED_MEASUREMENT": 6.27}
{"COMPOUND": "O=C(c1cncc(Cl)c1)N1CCN(C(c2ccccc2)c2cccnc2)CC1 (stereo not shown)", "MEASUREMENT_NAME": "pIC50", "COMPARATOR": "=", "OBSERVED_MEASUREMENT": 6.35}
{"COMPOUND": "COC(=O)c1cncc(C(=O)N2CCN(C3c4ccccc4CCc4ccccc43)CC2)c1", "MEASUREMENT_NAME": "pIC50", "COMPARATOR": "<", "OBSERVED_MEASUREMENT": 6.00}
{"COMPOUND": "Cc1cncc(C(=O)N2CCC(=C(c3cccc(F)c3)c3cccc(F)c3)CC2)c1", "MEASUREMENT_NAME": "pIC50", "COMPARATOR": "=", "OBSERVED_MEASUREMENT": 7.38}
